# System: E. coli MG1655 wild-type
# protocol-text: Toxicity assay: growth rate of wild-type E. coli in M9 medium with the chemical in sealed baffled flasks
# Format: cell-based, Escherichia coli
# study-conditions: wild-type strain; read-out: concentration where growth is 50% inhibited (EC50), half maximal inhibitory concentration
# Experimental: The tolerance against Isoprenol was confirmed with the established toxicity assay of growth in M9 medium with Isoprenol in baffled sealed 250 mL flasks. […] On the next day 25 mL of medium in 250 mL baffled flasks with Teflon® liner screw cabs were inoculated to an OD of 0.2 and incubated at 200 rpm. […] The mean culture growth rate was determined by comparing the initial OD and the culture OD before passaging. […]
recorded-metric: pEC50
Please express pEC50 as -log10 of the molar concentration.

Looking for the measured pEC50 of CC(C)=CCO , can you help?
1.40
